# experimental-details: Pharmacokinetics, single oral dosing, SAD study BP25129
# Assay type: in vivo, Human
# experimental-parameters: human, plasma; 160 mg oral, tablet, n = 6 male, median; read-out: Tmax (range)
measurement-label: Tmax (h)
Your answer is read as h, so omit the unit and give the number.

Kindly note the recorded Tmax for Cc1onc(-c2ccc(F)cc2)c1COc1ccc(C(=O)N2CCS(=O)(=O)CC2)cn1 , which is 4

* * *

# experimental-details: Pharmacokinetics, single oral dosing
# Format: in vivo
# experimental-parameters: Beagle, dog, plasma; 4 mg/kg oral, capsule, n = 3 male
# Procedure: Concentrations were chosen to achieve the desired doses by administering 5 mL/kg to rats and 2.5 mL/kg to NHPs via oral gavage. The calibration range was from 1.0 to 5000 ng/mL. After protein precipitation with ethanol, the sample solution was injected onto a Gemini C18 trapping column (2 × 10 mm; Phenomenex, Torrance, CA, USA) and polar endogenous compounds and salts were rinsed off. […]
measurement-label: bioavailability (%)
Your answer is read as %, so omit the unit and give the number.

Kindly note the recorded bioavailability for Cc1onc(-c2ccc(F)cc2)c1COc1ccc(C(=O)N2CCS(=O)(=O)CC2)cn1 , which is 61

* * *

# experimental-details: Plasma concentration in PET study
# Format: in vivo
# experimental-parameters: human, subject 13041, 20 mg, 2.20 h prior to scan
measurement-label: concentration at 2.2 h (ng/mL)
Your answer is read as ng/mL, so omit the unit and give the number.

Kindly note the recorded concentration at 2.2 h for Cc1onc(-c2ccc(F)cc2)c1COc1ccc(C(=O)N2CCS(=O)(=O)CC2)cn1 [basmisanil] , which is 398

* * *

# subject-of-test: human GABAA α5β3γ2 (Homo sapiens, UniProt P18507+P31644)
# Sequence (P31644 32-462): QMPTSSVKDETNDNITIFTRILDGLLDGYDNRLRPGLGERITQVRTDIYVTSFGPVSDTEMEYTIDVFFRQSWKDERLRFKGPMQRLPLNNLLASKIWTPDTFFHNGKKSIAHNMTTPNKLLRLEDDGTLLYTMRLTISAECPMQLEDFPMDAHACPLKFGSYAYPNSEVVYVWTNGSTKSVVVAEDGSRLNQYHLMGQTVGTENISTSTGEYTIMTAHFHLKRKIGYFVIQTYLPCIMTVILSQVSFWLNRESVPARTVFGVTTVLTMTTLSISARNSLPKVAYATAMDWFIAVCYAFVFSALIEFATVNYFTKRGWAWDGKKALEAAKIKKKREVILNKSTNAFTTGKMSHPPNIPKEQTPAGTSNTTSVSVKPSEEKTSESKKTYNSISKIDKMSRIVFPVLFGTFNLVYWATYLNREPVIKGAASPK
# Sequence (P28472 26-473 partner): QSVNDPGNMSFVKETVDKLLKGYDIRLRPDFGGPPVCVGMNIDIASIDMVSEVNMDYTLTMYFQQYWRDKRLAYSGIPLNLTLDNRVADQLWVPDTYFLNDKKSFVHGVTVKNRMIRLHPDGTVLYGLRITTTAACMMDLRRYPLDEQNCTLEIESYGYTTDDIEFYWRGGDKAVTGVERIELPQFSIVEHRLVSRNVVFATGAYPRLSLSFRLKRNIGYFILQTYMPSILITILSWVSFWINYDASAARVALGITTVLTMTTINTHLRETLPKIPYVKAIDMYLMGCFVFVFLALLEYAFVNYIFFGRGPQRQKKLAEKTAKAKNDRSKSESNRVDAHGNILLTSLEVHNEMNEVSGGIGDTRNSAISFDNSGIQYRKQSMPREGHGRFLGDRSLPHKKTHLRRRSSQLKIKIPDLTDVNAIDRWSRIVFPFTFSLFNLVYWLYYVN
# Sequence (P18507 40-475): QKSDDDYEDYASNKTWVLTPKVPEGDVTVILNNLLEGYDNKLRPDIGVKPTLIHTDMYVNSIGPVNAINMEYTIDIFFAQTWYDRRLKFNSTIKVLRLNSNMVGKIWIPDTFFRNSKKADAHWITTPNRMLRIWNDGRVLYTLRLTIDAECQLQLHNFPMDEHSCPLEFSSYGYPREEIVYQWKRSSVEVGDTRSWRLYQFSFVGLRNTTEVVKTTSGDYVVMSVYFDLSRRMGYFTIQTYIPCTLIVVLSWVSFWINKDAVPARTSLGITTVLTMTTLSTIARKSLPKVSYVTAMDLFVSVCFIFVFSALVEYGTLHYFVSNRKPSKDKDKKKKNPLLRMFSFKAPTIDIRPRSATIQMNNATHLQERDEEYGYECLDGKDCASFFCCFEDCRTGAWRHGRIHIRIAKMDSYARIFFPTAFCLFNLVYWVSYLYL
# experimental-details: [3H]-Ro-15 4513 displacement assay
# Format: binding
# Design: expressed in transfected cells; host or cells: HEK293-EBNA, transient
measurement-label: Ki (nM)
Your answer is read as nM, so omit the unit and give the number.

Kindly note the recorded Ki for Cc1onc(-c2ccc(F)cc2)c1COc1ccc(C(=O)N2CCS(=O)(=O)CC2)cn1 , which is 7.6

* * *

# experimental-details: Pharmacokinetics, single oral dosing
# Format: in vivo
# experimental-parameters: C57/Bl6, mouse, plasma; 4 mg/kg oral, microsuspension, n = 2 male; read-out: Tmax (range)
measurement-label: Tmax

Kindly note the recorded Tmax for Cc1onc(-c2ccc(F)cc2)c1COc1ccc(C(=O)N2CCS(=O)(=O)CC2)cn1 , which is 18 min

* * *

# experimental-details: Plasma concentration in PET study
# Format: in vivo
# experimental-parameters: human, subject 13050, 80 mg, 2.43 h prior to scan
# Protocol: The study was single-blind, i.e., subjects were blinded to dose. Blood sampling was performed at four different timepoints starting 30 min before the post dose PET scan.
measurement-label: concentration at 2.43 h

Kindly note the recorded concentration at 2.43 h for Cc1onc(-c2ccc(F)cc2)c1COc1ccc(C(=O)N2CCS(=O)(=O)CC2)cn1 , which is 1000 ng/mL

* * *

# experimental-details: Pharmacokinetics, single oral dosing
# Format: in vivo
# experimental-parameters: C57/Bl6, mouse, plasma; 4 mg/kg oral, microsuspension, n = 2 male
# Method: Concentrations were chosen to achieve the desired doses by administering 5 mL/kg to rats and 2.5 mL/kg to NHPs via oral gavage. The calibration range was from 1.0 to 5000 ng/mL. After protein precipitation with ethanol, the sample solution was injected onto a Gemini C18 trapping column (2 × 10 mm; Phenomenex, Torrance, CA, USA) and polar endogenous compounds and salts were rinsed off. […]
measurement-label: bioavailability (%)
Your answer is read as %, so omit the unit and give the number.

Kindly note the recorded bioavailability for Cc1onc(-c2ccc(F)cc2)c1COc1ccc(C(=O)N2CCS(=O)(=O)CC2)cn1 [basmisanil] , which is 25

* * *

# experimental-details: Pharmacokinetics, single oral dosing
# Assay type: in vivo
# experimental-parameters: C57/Bl6, mouse, plasma; 4 mg/kg oral, microsuspension, n = 2 male
measurement-label: AUC(0-t) (ng·h/mL)
Your answer is read as ng·h/mL, so omit the unit and give the number.

Kindly note the recorded AUC(0-t) for Cc1onc(-c2ccc(F)cc2)c1COc1ccc(C(=O)N2CCS(=O)(=O)CC2)cn1 , which is 455

* * *

# experimental-details: Pharmacokinetics, single oral dosing
# Format: in vivo
# experimental-parameters: Beagle, dog, plasma; 4 mg/kg oral, capsule, n = 3 male, median; read-out: Tmax (range)
measurement-label: Tmax (h)
Your answer is read as h, so omit the unit and give the number.

Kindly note the recorded Tmax for Cc1onc(-c2ccc(F)cc2)c1COc1ccc(C(=O)N2CCS(=O)(=O)CC2)cn1 , which is 1.5

* * *

# experimental-details: Pharmacokinetics, single oral dosing, SAD study BP25129
# Format: in vivo, Human
# experimental-parameters: human, plasma; 45 mg oral, tablet, n = 6 male, ± percent coefficient of variation
measurement-label: Cmax (ng/mL)
Your answer is read as ng/mL, so omit the unit and give the number.

Kindly note the recorded Cmax for Cc1onc(-c2ccc(F)cc2)c1COc1ccc(C(=O)N2CCS(=O)(=O)CC2)cn1 [basmisanil] , which is 767

* * *

# experimental-details: Plasma protein binding
# Type: in vitro ADME
# experimental-parameters: rat, rats
measurement-label: fraction unbound
Respond with the number and no other words.

Kindly note the recorded fraction unbound for Cc1onc(-c2ccc(F)cc2)c1COc1ccc(C(=O)N2CCS(=O)(=O)CC2)cn1 [basmisanil] , which is 0.14

* * *

# experimental-details: Plasma concentration in PET study
# Assay type: in vivo
# experimental-parameters: human, subject 11020, 160 mg, 3.12 h prior to scan
# Experimental: The study was single-blind, i.e., subjects were blinded to dose. Blood sampling was performed at four different timepoints starting 30 min before the post dose PET scan.
measurement-label: concentration at 3.12 h (ng/mL)
Your answer is read as ng/mL, so omit the unit and give the number.

Kindly note the recorded concentration at 3.12 h for Cc1onc(-c2ccc(F)cc2)c1COc1ccc(C(=O)N2CCS(=O)(=O)CC2)cn1 [basmisanil] , which is 2280

* * *

# experimental-details: Pharmacokinetics, single intravenous dosing
# Format: in vivo
# experimental-parameters: C57/Bl6, mouse, plasma, 2.0 mg/kg i.v., 2 male, read-out: Total CL
measurement-label: clearance (mL/min/kg)
Your answer is read as mL/min/kg, so omit the unit and give the number.

Kindly note the recorded clearance for Cc1onc(-c2ccc(F)cc2)c1COc1ccc(C(=O)N2CCS(=O)(=O)CC2)cn1 , which is 37

* * *

# experimental-details: Pharmacokinetics, single oral dosing, SAD study BP25129
# Format: in vivo, Human
# experimental-parameters: human, plasma; 160 mg oral, tablet, n = 6 male
measurement-label: bioavailability

Kindly note the recorded bioavailability for Cc1onc(-c2ccc(F)cc2)c1COc1ccc(C(=O)N2CCS(=O)(=O)CC2)cn1 [basmisanil] , which is ~75%

* * *

# experimental-details: Pharmacokinetics, single intravenous dosing
# Assay type: in vivo, NHP, Cynomolgus macaque
# experimental-parameters: cynomolgus monkey, plasma, 1.0 mg/kg i.v., n=3
measurement-label: half-life (min)
Your answer is read as min, so omit the unit and give the number.

Kindly note the recorded half-life for Cc1onc(-c2ccc(F)cc2)c1COc1ccc(C(=O)N2CCS(=O)(=O)CC2)cn1 , which is 270

* * *

# experimental-details: Plasma concentration in PET study
# Assay type: in vivo
# experimental-parameters: human, subject 13010, 40 mg, 2.63 h prior to scan
measurement-label: concentration at 2.63 h (ng/mL)
Your answer is read as ng/mL, so omit the unit and give the number.

Kindly note the recorded concentration at 2.63 h for Cc1onc(-c2ccc(F)cc2)c1COc1ccc(C(=O)N2CCS(=O)(=O)CC2)cn1 [basmisanil] , which is 422

* * *

# experimental-details: Pharmacokinetics, single intravenous dosing
# Assay type: in vivo
# experimental-parameters: Wistar, rat, plasma, 4.3 mg/kg i.v., 2 male
measurement-label: half-life (h)
Your answer is read as h, so omit the unit and give the number.

Kindly note the recorded half-life for Cc1onc(-c2ccc(F)cc2)c1COc1ccc(C(=O)N2CCS(=O)(=O)CC2)cn1 , which is 1.2

* * *

# experimental-details: Pharmacokinetics, single oral dosing
# Format: in vivo
# experimental-parameters: Beagle, dog, plasma; 4 mg/kg oral, capsule, n = 3 male, ± standard deviation
measurement-label: Cmax (ng/mL)
Your answer is read as ng/mL, so omit the unit and give the number.

Kindly note the recorded Cmax for Cc1onc(-c2ccc(F)cc2)c1COc1ccc(C(=O)N2CCS(=O)(=O)CC2)cn1 , which is 788

* * *

# experimental-details: Pharmacokinetics, single oral dosing
# Format: in vivo, Cynomolgus macaque
# experimental-parameters: cynomolgus monkey, plasma; 10 mg/kg oral, microsuspension, n = 3 male, ± standard deviation
measurement-label: AUC(0-t) (ng·h/mL)
Your answer is read as ng·h/mL, so omit the unit and give the number.

Kindly note the recorded AUC(0-t) for Cc1onc(-c2ccc(F)cc2)c1COc1ccc(C(=O)N2CCS(=O)(=O)CC2)cn1 [basmisanil] , which is 27500

This collection of values is drawn from paper PMC8032764.
